Catalogue of Km readings, one per entry.
- Substrate: CC(C)=CCC/C(C)=C/CC/C(C)=C/CO[P@@](=O)(O)OP(=O)(O)O
- Experiment Notes: steady-state kinetics of purified enzyme (details in supplement)
- Format: biochemical, Streptomyces coelicolor
- Settings: Mg2+-dependent enzyme; assay conditions in supplement
Record the value in µM, omitting the unit from your answer.

Protein: Gd11olS (germacradien-11-ol synthase; N-terminal domain of geosmin synthase) (Streptomyces coelicolor A3(2); Q313A) (protein, N-terminal domain, residues 1-366 of geosmin synthase; codon-optimized synthetic gene in pET28a, expressed in E. coli, purified to homogeneity; tag details in supplement) MTQQPFQLPHFYLPHPARLNPHLDEARAHSTTWAREMGMLEGSGVWEQSDLEAHDYGLLCAYTHPDCDGPALSLITDWYVWVFFFDDHFLEKYKRSQDRLAGKAHLDRLPLFMPLDDAAGMPEPRNPVEAGLADLWTRTVPAMSADWRRRFAVATEHLLNESMWELSNINEGRVANPVEYIEMRRKVGGAPWSAGLVEYATAEVPAAVAGTRPLRVLMETFSDAVHLRNDLFSYQREVEDEGELSNGVLVLETFFGCTTQEAADLVNDVLTSRLHQFEHTAFTEVPAVALEKGLTPLEVAAVGAYTKGLQDWASGGHEWHMRSSRYMNKGERPLAGWQALTGPGTSAADVGALLADAVAQRARSYT
Km (µM): 1.10

Return reported Km. Input protein: Gd11olS (germacradien-11-ol synthase; N-terminal domain of geosmin synthase) (Streptomyces coelicolor A3(2); W312F) (protein, N-terminal domain, residues 1-366 of geosmin synthase; codon-optimized synthetic gene in pET28a, expressed in E. coli, purified to homogeneity; tag details in supplement) MTQQPFQLPHFYLPHPARLNPHLDEARAHSTTWAREMGMLEGSGVWEQSDLEAHDYGLLCAYTHPDCDGPALSLITDWYVWVFFFDDHFLEKYKRSQDRLAGKAHLDRLPLFMPLDDAAGMPEPRNPVEAGLADLWTRTVPAMSADWRRRFAVATEHLLNESMWELSNINEGRVANPVEYIEMRRKVGGAPWSAGLVEYATAEVPAAVAGTRPLRVLMETFSDAVHLRNDLFSYQREVEDEGELSNGVLVLETFFGCTTQEAADLVNDVLTSRLHQFEHTAFTEVPAVALEKGLTPLEVAAVGAYTKGLQDFQSGGHEWHMRSSRYMNKGERPLAGWQALTGPGTSAADVGALLADAVAQRARSYT
0.9
